test system: RPMI-8226 leukemia; experiment: NCI tumour cell line growth inhibition, 384-well format
For each entry below, report its TGI value.
Numbers only, in µM.

Consider the following illustrative entries.
INSERT INTO assay_data (given_smiles, target_desc, recorded_value) VALUES
  ('CC1(C)CNc2cc(NC(=O)c3cccnc3NCc3ccncc3)ccc21', 'RPMI-8226 leukemia', 41.6),
  ('COc1ncc(Nc2ncc([C@@H](C)N3CCN(S(C)(=O)=O)CC3)cc2-c2nc(C)nc(N)n2)cc1F', 'RPMI-8226 leukemia', 8.44);

With those in mind, consider the next molecule.
Input: For the molecule "COCc1c(-c2cc3cc(C)cc(OC)c3s2)c2c(N)ncnn2c1CN1CCNC(=O)C1" , what TGI is on record?
Output: 7.59
